System under test: full-length FUS wild type (UniProt P35637 1-526)
Sequence (P35637 whole entry): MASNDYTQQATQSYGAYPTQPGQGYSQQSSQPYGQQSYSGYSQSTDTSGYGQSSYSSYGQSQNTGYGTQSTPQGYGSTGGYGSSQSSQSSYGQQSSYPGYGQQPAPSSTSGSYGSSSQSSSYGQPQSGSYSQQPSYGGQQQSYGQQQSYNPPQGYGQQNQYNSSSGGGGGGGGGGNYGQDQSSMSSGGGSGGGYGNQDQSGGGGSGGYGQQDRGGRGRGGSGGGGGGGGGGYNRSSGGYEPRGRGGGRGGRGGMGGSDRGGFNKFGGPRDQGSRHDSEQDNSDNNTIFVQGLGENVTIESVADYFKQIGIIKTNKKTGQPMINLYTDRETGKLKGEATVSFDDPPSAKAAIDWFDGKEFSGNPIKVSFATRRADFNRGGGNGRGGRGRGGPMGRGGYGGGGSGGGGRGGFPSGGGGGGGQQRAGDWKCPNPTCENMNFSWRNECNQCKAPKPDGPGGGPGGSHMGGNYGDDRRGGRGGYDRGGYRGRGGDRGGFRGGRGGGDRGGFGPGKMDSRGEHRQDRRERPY
Assay method text: steady-state fluorescence (2-AP); 150 mM KCl, 5-fold excess BSA; Fluorescence: 10 mM cacodylic acid pH 6.5, 150 mM KCl, 23 C, 150 or 200 nM RNA, 5-fold excess BSA or HCV peptide; pull-down: 5 uM probe annealed in the same buffer, room temperature, RIPA lysate and washes; native PAGE 20%, RNA:peptide 1:1 to 1:3
Assay setup: protein: recombinant; label: 2-AP at position 4; G quadruplex
pKd: −log10 of the molar value.
Readout label: pKd

- Binder: "GGGAGGGAGGGUGGG (structured_RNA, A4 replaced by 2-aminopurine) [PSD-95 GQ2 2-AP]"
  Readout label: "pKd"
  Endpoint result: 7.55
